Source listed as the supplement of paper PMC10515830.

# System: Danio rerio larvae (5 dpf)
# Experimental Protocol: difference in startle response vs DMSO (percentage points); higher = stronger startle than DMSO
# Protocol Conditions: 10 µM; exposure time 6 h
Structures can show the parent of a compound that is named as a salt.
difference in startle response overview
Reported Metric: difference in startle response

1. CN(C)CCc1c[nH]c2ccc(C[C@H]3COC(=O)N3)cc12; 9.39
2. Cc1cc(C2CCCCC2)n(O)c(=O)c1; -2.37
3. CC(C)(C)NC(=O)[C@@H]1CN(Cc2cccnc2)CCN1C[C@@H](O)C[C@@H](Cc1ccccc1)C(=O)N[C@H]1c2ccccc2C[C@H]1O [Indinavir (sulfate)]; -2.27
4. Nc1nc(Cl)nc2c1ncn2[C@@H]1O[C@H](CO)[C@@H](O)[C@@H]1F; -0.201
5. CC1=NN(c2ccc(C)c(C)c2)C(=O)/C1=N\Nc1cccc(-c2cccc(C(=O)O)c2)c1O; -0.303
6. Clc1ccc(CSC(Cn2ccnc2)c2ccc(Cl)cc2Cl)cc1 (centres undefined) [Sulconazole (nitrate)]; -12.7
7. C[C@@H]1C[C@H]2[C@@H]3CCC4=CC(=O)C=C[C@]4(C)[C@@]3(F)[C@@H](O)C[C@]2(C)[C@@]1(O)C(=O)CO; -3.99
8. CN(C)CCCN1c2ccccc2Sc2ccc(Cl)cc21 [Chlorpromazine (hydrochloride)]; -0.58
9. CC1(C)S[C@@H]2[C@H](NC(=O)[C@H](N)c3ccc(O)cc3)C(=O)N2[C@H]1C(=O)O [Amoxicillin (hydrate)]; 8.42

---

# System: Danio rerio larvae (5 dpf)
# Experimental Protocol: difference in combined optomotor response to red, green and blue moving lines vs DMSO (percentage points); higher = stronger optomotor response than DMSO
# Protocol Conditions: 10 µM; exposure time 6 h
Reported Metric: difference

1. CCc1cc(C(N)=S)ccn1 [Ethionamide]; 2.57
2. NC(=O)Cc1cccc(C(=O)c2ccccc2)c1N; -4.77
3. Cc1c(O)c(=O)ccn1C; 10.8
4. NS(=O)(=O)c1cc(Cl)c(Cl)c(S(N)(=O)=O)c1 [Dichlorphenamide]; -8.01
5. COc1ccccc1OCCNCC(O)COc1cccc2[nH]c3ccccc3c12 (stereo unspecified); 3.65
6. Cc1cccc(Nc2ccncc2S(=O)(=O)NC(=O)NC(C)C)c1 [Torasemide]; -5.29

---

# Tested on: Danio rerio larvae (5 dpf)
# Experimental Protocol: difference in startle response vs DMSO (percentage points); higher = stronger startle than DMSO
# Protocol Conditions: 10 µM; exposure time 6 h
difference in startle response overview
Reported Metric: difference in startle response

1) COc1cc2/c(=N/c3ccc(Br)cc3F)nc[nH]c2cc1OCC1CCN(C)CC1; -1.93
2) Nc1nc(CC(=O)Nc2ccc(CCNC[C@H](O)c3ccccc3)cc2)cs1; -0.811
3) OC[C@@H](O)[C@@H](O)[C@H](O)[C@H](O)CO; -0.914
4) C[N+](C)(C)CC=O [Betaine Aldehyde (chloride)]; 1.56
5) CCCCC[C@H](O)/C=C/[C@H]1[C@H](O)CC(=O)[C@@H]1C/C=C\CCCC(=O)O [Prostaglandin E2]; -5.41
6) COCC1=C(C(=O)O)N2C(=O)[C@@H](NC(=O)/C(=N\OC)c3csc(N)n3)[C@H]2SC1; 1.11

---

# System: Danio rerio larvae (5 dpf)
# Experimental Protocol: difference in combined optomotor response to red, green and blue moving lines vs DMSO (percentage points); higher = stronger optomotor response than DMSO
# Protocol Conditions: 10 µM; exposure time 6 h
Structures can show the parent of a compound that is named as a salt.
Reported Metric: difference

1) CCOC(=O)[C@H](CCc1ccccc1)N[C@@H](C)C(=O)N1[C@H](C(=O)O)C[C@@H]2CCC[C@@H]21; 7.67
2) CNCC[C@H](Oc1cccc2ccccc12)c1cccs1 [(S)-Duloxetine (hydrochloride)]; -11.3
3) CCCc1cc(=O)[nH]c(=S)[nH]1; 1.84
4) CCCCC(=O)N(Cc1ccc(-c2ccccc2-c2nnn[nH]2)cc1)[C@H](C(=O)O)C(C)C; 3.88
5) COc1cc2ncnc(Nc3ccc(F)c(Cl)c3)c2cc1NC(=O)/C=C/CN1CCCCC1; 6.72
6) O=C1CCc2cc(OCCCCc3nnnn3C3CCCCC3)ccc2N1; 0.57
7) CNCC(=O)OCc1cccnc1N(C)C(=O)OC(C)[n+]1cnn(C[C@](O)(c2cc(F)ccc2F)[C@@H](C)c2nc(-c3ccc(C#N)cc3)cs2)c1 (stereo not given in full) [Isavuconazonium (sulfate)]; -5.6
8) CCc1c2c(nc3ccc(OC(=O)N4CCC(N5CCCCC5)CC4)cc13)-c1cc3c(c(=O)n1C2)COC(=O)[C@]3(O)CC [Irinotecan (hydrochloride hydrate)]; 2.92
9) CCCCC1=NC2(CCCC2)C(=O)N1Cc1ccc(-c2ccccc2-c2nnn[nH]2)cc1; 5.61
10) CN(C)C(=O)c1cc2cnc(Nc3ccc(N4CCNCC4)cn3)nc2n1C1CCCC1; 0.1
11) CC(C)N(CCCCOCC(=O)NS(C)(=O)=O)c1cnc(-c2ccccc2)c(-c2ccccc2)n1; 2.84
12) CC(=O)OCC(CCn1cnc2cnc(N)nc21)COC(C)=O; 4.52
13) CC#CC(=O)N1CCC[C@H]1c1nc(-c2ccc(C(=O)Nc3ccccn3)cc2)c2c(N)nccn12; -2.56
14) CN1CCN(C2=Nc3cc(Cl)ccc3Nc3ccccc32)CC1; 5.08
15) CCO/N=C(\C(=O)N[C@@H]1C(=O)N2C(C(=O)[O-])=C(Sc3nc(-c4cc[n+](C)cc4)cs3)CS[C@H]12)c1nsc(NP(=O)(O)O)n1; -5.35

---

# Test system: Danio rerio larvae (5 dpf)
# Experimental Protocol: difference in excitability vs DMSO (percentage points); higher = more excitable than DMSO
# Protocol Conditions: 10 µM; exposure time 6 h
Counter-ions that a name gives are not always drawn.
difference in excitability overview
Reported Metric: difference in excitability

1. Cc1cc(/C=C/C#N)cc(C)c1Nc1ccnc(Nc2ccc(C#N)cc2)n1 [Rilpivirine]; 9.16
2. C=C[C@H]1CN2CC[C@H]1C[C@H]2[C@H](O)c1ccnc2ccc(OC)cc12 [Quinine]; 11.3
3. CN(C)CCC(c1ccc(Br)cc1)c1ccccn1 (centres undefined) [Brompheniramine (maleate)]; 4.19
4. CC[C@@]1(O)C(=O)OCc2c1cc1n(c2=O)Cc2cc3c(CN(C)C)c(O)ccc3nc2-1 [Topotecan (hydrochloride)]; 4.94

---

difference in habituation to acoustic stimuli overview
# Test system: Danio rerio larvae (5 dpf)
# Experimental Protocol: difference in habituation to acoustic stimuli vs DMSO (percentage points); higher = more habituation than DMSO
# Protocol Conditions: 10 µM; exposure time 6 h
Structures can show the parent of a compound that is named as a salt.
Reported Metric: difference in habituation to acoustic stimuli

1. CN(C/C=C/C#CC(C)(C)C)Cc1cccc2ccccc12 [Terbinafine (hydrochloride)]; -1.41
2. NC(=O)c1ncn([C@@H]2O[C@H](CO)[C@@H](O)[C@H]2O)n1; -4.01
3. CN1CCC(=C2c3ccccc3CCn3c(C=O)cnc32)CC1; -3
4. COc1ccc(CC(C)NCC(O)c2ccc(O)c(NC=O)c2)cc1 (stereo not drawn) [Formoterol (hemifumarate hydrate)]; -7.8
5. CC(C)[C@H](N)C(=O)OCCOCn1cnc2c(=O)[nH]c(N)nc21 [L-Valacyclovir (hydrochloride)]; -8.71
6. O=C(CCCN1CCC(O)(c2ccc(Cl)cc2)CC1)c1ccc(F)cc1; -7.67
7. C[N+]1(C)[C@@H]2C[C@@H](OC(=O)C(O)(c3cccs3)c3cccs3)C[C@H]1[C@@H]1O[C@@H]12 [Tiotropium (bromide)]; -4.6
8. CCc1cc2c(cc1N1CCC(N3CCOCC3)CC1)C(C)(C)c1[nH]c3cc(C#N)ccc3c1C2=O; 0.995
9. Cc1nnc(C(C)C)n1C1C[C@H]2CC[C@@H](C1)N2CC[C@H](NC(=O)C1CCC(F)(F)CC1)c1ccccc1 (stereo in doubt); -1.89
10. CCN[C@H]1C[C@H](C)S(=O)(=O)c2sc(S(N)(=O)=O)cc21 [Dorzolamide (hydrochloride)]; 2.29
11. Cc1c2oc3c(C)ccc(C(=O)N[C@@H]4C(=O)N[C@H](C(C)C)C(=O)N5CCC[C@H]5C(=O)N(C)CC(=O)N(C)[C@@H](C(C)C)C(=O)O[C@@H]4C)c3nc-2c(C(=O)N[C@@H]2C(=O)N[C@H](C(C)C)C(=O)N3CCC[C@H]3C(=O)N(C)CC(=O)N(C)[C@@H](C(C)C)C(=O)O[C@@H]2C)c(N)c1=O; 4.18
12. Cc1nc(-c2ccc(OCC(C)C)c(C#N)c2)sc1C(=O)O; 3.9
13. NC(=O)C(c1ccccc1)(c1ccccc1)[C@@H]1CCN(CCc2ccc3c(c2)CCO3)C1 [Darifenacin (hydrobromide)]; -3.27
14. CCCCC1=NC2(CCCC2)C(=O)N1Cc1ccc(-c2ccccc2-c2nnn[nH]2)cc1; -4.93
15. CNNCc1ccc(C(=O)NC(C)C)cc1 [Procarbazine (hydrochloride)]; -5.35
16. Nc1cc(Cl)c(N=C2NCCN2)c(Cl)c1 [Apraclonidine (hydrochloride)]; -0.961
17. CN(N=O)C(=O)N[C@@H](C=O)[C@@H](O)[C@H](O)[C@H](O)CO; -6.76
18. C[C@H]1CN(C[C@H](Cc2ccccc2)C(=O)NCC(=O)O)CC[C@@]1(C)c1cccc(O)c1; 3.02
19. CO[C@H]1C[C@@H]2CC[C@@H](C)[C@@](O)(O2)C(=O)C(=O)N2CCCC[C@H]2C(=O)O[C@H]([C@H](C)C[C@@H]2CC[C@@H](OC(=O)C(C)(CO)CO)[C@H](OC)C2)CC(=O)[C@H](C)/C=C(\C)[C@@H](O)[C@@H](OC)C(=O)[C@H](C)C[C@H](C)/C=C/C=C/C=C/1C; 4.35
20. COCC1=C(C(=O)O)N2C(=O)[C@@H](NC(=O)/C(=N\OC)c3csc(N)n3)[C@H]2SC1; -0.554
21. CCCCC(C)(O)C/C=C/[C@H]1[C@H](O)CC(=O)[C@@H]1CCCCCCC(=O)OC (mixture of isomers); 7.1
22. O=NN(CCCl)C(=O)NCCCl; 0.0979
23. CNC(=C[N+](=O)[O-])NCCSCc1csc(CN(C)C)n1; 2.96
24. COc1ccccc1OCCNCC(O)COc1cccc2[nH]c3ccccc3c12 (stereo not drawn); 0.913
25. CCOc1nc2cccc(C(=O)OC(C)OC(=O)OC3CCCCC3)c2n1Cc1ccc(-c2ccccc2-c2nn[nH]n2)cc1 (stereo not drawn); -2.83
26. CN1[C@@H]2CC[C@H]1C[C@@H](OC(c1ccccc1)c1ccccc1)C2 [Benztropine (mesylate)]; -9.38
27. C=C[C@H]1CN2CC[C@H]1C[C@H]2[C@H](O)c1ccnc2ccc(OC)cc12; 0.181
28. O=C(O)Cc1ccccc1Nc1c(Cl)cccc1Cl [Diclofenac (sodium salt)]; -5.15
